Could you please report measured composite z-score for the items listed next?
# Assay comment: binders of probe aFGF10 on microarray, primary screen, stem cell growth factor project, biochemical, small-molecule microarray, fluorescence 635/667 (AID 1071);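 also: score merges 667 nm spot intensity and signal to noise from triplicate slides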
# Condition notes: higher = more signal

[
  {
    "Compound": "CCN1C(=O)[C@H]2[C@H]3[C@H](O)[C@H](O)CC(=NOCC[C@@H]4C=C[C@H](OC(C)=O)[C@@H](COC(C)=O)O4)[C@@H]3CC[C@H]2C1=O",
    "composite z-score": 0.547
  },
  {
    "Compound": "COC(=O)CC=C[C@@H](C)[C@@H](C=NOC(C)CN1CCCCc2nc(C)c(C)cc21)OC (stereo partly specified)",
    "composite z-score": -0.425
  },
  {
    "Compound": "COCOc1ccc(Br)cc1C(=O)C=Cc1ccc2c(c1)OCO2",
    "composite z-score": 0.313
  },
  {
    "Compound": "COc1ccc(-c2cnnc(CCCn3ccnc3-c3ccccc3)n2)cc1",
    "composite z-score": 0.763
  },
  {
    "Compound": "C=C(C)C(=O)OC[C@H]1CN2[C@@H](CC[C@@H](C)[C@@H]2c2ccc(Br)cc2)C(=O)O1",
    "composite z-score": 0.113
  },
  {
    "Compound": "CC1(C)O[C@H]2OC([C@H](O)CON3C(=O)c4ccccc4C3=O)[C@H](O)[C@H]2O1 (stereo partly specified)",
    "composite z-score": 0.0685
  },
  {
    "Compound": "C#CCCCON=C1C[C@@H](O)[C@@H](O)[C@@H]2[C@@H]3C(=O)N(C[C@@H]4CCCO4)C(=O)[C@@H]3CC[C@H]12",
    "composite z-score": 0.188
  },
  {
    "Compound": "COC(=O)[C@H](C)NC(=O)CCC1CC(OC(=O)NCc2cccc3ccccc23)CC2(CCCC(COC(=O)NCCC(C)C)O2)O1 (stereo partly specified)",
    "composite z-score": 0.0257
  }
]

# map each compound to its composite z-score
1. C=CC[C@@H]1C=C[C@H](ON=C(C)CCN2CCCCc3nc(C)c(C)cc32)[C@@H](CO)O1
2. CC(=O)OC[C@H]1O[C@H](CC=NO[C@@H](C)c2cc(-c3c(C)cc(C)cc3C)no2)C=C[C@@H]1OC(C)=O
3. CC(C)[C@@H](OCc1ccccc1)[C@H](C)C=NO[C@@H](C)c1cn([C@H](CO)Cc2ccccc2)nn1
4. COC(=O)[C@H](C)NC(=O)CCC1CC(OC(=O)NCc2ccc3c(c2)OCO3)CC2(CCCC(COC(=O)NCCC(C)C)O2)O1 (stereo partly specified)
5. CC(=O)OC[C@H]1O[C@@H](ON=C(C)CCC(=O)OC[C@H]2O[C@H](C#Cc3ccccc3)C=C[C@@H]2Oc2ccc(C)cc2)[C@H](OC(C)=O)[C@@H](OC(C)=O)[C@@H]1OC(C)=O
6. CC(CCN1CCCCc2nc(C)c(C)cc21)=NO[C@@H](C)c1cc(-c2c(C)cc(C)cc2C)no1
7. CC(=O)OC[C@H]1O[C@H](CCON=C(C)CCN2CCCc3nc(C)c(C)cc32)C=C[C@@H]1OC(C)=O
8. C=CC[C@@H]1C=C[C@H](ON=C[C@@H](NS(=O)(=O)c2ccc(C)cc2)[C@H](C)C=CCC(=O)OC)[C@@H](CO)O1

1. 0.129
2. 0.149
3. 0.175
4. 0.338
5. 1.12
6. -0.33
7. 0.72
8. 0.2

# map each compound to its composite z-score
1. COC(=O)[C@H](Cc1ccccc1)NC(=O)[C@@H](C)CO
2. C[C@@H](c1ccccc1)N1C(=O)[C@H]2[C@H]3[C@H](O)[C@H](O)CC(=NOCc4ccccc4)[C@@H]3CC[C@H]2C1=O
3. COC(=O)CC=C[C@@H](C)[C@@H](C=NOC[C@@H](O)COCc1ccco1)OC

1: 0.417; 2: 0.0018; 3: -0.813

* * *

# Assay comment: basal HepG2 mitochondrial membrane potential changes, profiling panel, cell-based, JC-1 fluorescence, 24 h, 100 nL compound (AID 1167); also: test concentration not given here
# Condition notes: higher = more signal
Quantity: z-score
Give bare numbers.

# map each compound to its z-score
1. CCOC(=O)CCN1C(=O)[C@H]2[C@H]3[C@H](O)[C@H](O)CC(=NOCC=C(C)CCC=C(C)C)[C@@H]3CC[C@H]2C1=O
2. CC(CCC(=O)OC[C@H]1O[C@H](C#Cc2ccccc2)C=C[C@@H]1Oc1ccc(C)cc1)=NO[C@@H](C)c1cc(-c2c(C)cc(C)cc2C)no1
3. CCOC(=O)[C@H](CC(C)C)NC(=O)CCC1CC(OC(=O)NCCc2ccc(F)cc2)CC2(CCCC(COC(=O)NCCCN3CCCC3=O)O2)O1 (stereo not given in full)
4. C#CCCCON=C1C[C@@H](O)[C@@H](O)[C@@H]2[C@@H]3C(=O)N(C[C@@H]4CCCO4)C(=O)[C@@H]3CC[C@H]12

[-0.651, 1.78, -0.556, -0.241]

* * *

# System: Inhibin beta A chain (activin A)
# Assay comment: INHBA (activin A) binders on microarrays, primary screen, biochemical, small-molecule microarray, 635 nm fluorescence scan (AID 1107);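 also: mouse activin A protein probed at 4.33 µg/mL on printed slides; score merges bound-protein fluorescence near 667 nm with spot signal-to-noise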
# Condition notes: small-molecule microarray binding, higher = more signal
Label MET when composite z-score is at or above 0.1; otherwise label NOT MET.

These recorded examples may help you get a feel for the data.
[
  {
    "Substance smiles": "COc1ccc(O[C@H]2C=C[C@@H](C#Cc3ccccc3)O[C@@H]2CO)cc1",
    "Measured on": "Inhibin beta A chain (activin A)",
    "Cat": "MET"
  },
  {
    "Substance smiles": "CC(C)=NOC[C@@H](O)[C@H]1O[C@@H]2OC(C)(C)O[C@@H]2[C@H]1O",
    "Measured on": "Inhibin beta A chain (activin A)",
    "Cat": "MET"
  },
  {
    "Substance smiles": "CC(C)(C)N1C(=O)[C@H]2[C@@H]3C(=CC[C@H]2C1=O)C(=O)[C@H]1O[C@H]1[C@H]3O",
    "Measured on": "Inhibin beta A chain (activin A)",
    "Cat": "MET"
  }
]

# bool: composite z-score of `CC(C)CON=C1C[C@@H](O)[C@@H](O)[C@@H]2[C@@H]3C(=O)N(Cc4ccc5c(c4)OCO5)C(=O)[C@@H]3CC[C@@H]12` >= 0.1
NOT MET

Cool, now `CC(C)=NO[C@@H](C)c1cn([C@H](CO)Cc2ccccc2)nn1`
MET

Cool, now `O=C1C=C[C@@H](O)[C@@H]2[C@@H]3C(=O)N(Cc4ccccc4)C(=O)[C@@H]3CC[C@@H]12`
MET

Cool, now `O=C1[C@H]2[C@H]3[C@H](O)[C@H](O)CC(=NO[C@@H]4O[C@H](CO)[C@@H](O)[C@H](O)[C@H]4O)[C@@H]3CC[C@H]2C(=O)N1C[C@@H]1CCCO1`
NOT MET

Cool, now `CCCNC(=O)OC[C@H]1O[C@H](CCON=C2c3cc(OC)ccc3O[C@H](c3cccc(OC)c3)[C@H]2O)C=C[C@@H]1Oc1ccc(OC)cc1`
NOT MET

* * *

Could you please report measured z-score for the items listed next?
# Assay comment: osmotic lysis modulators in infected erythrocytes, primary screen, PSAC antagonist project, cell-based, P. falciparum Indochina, OD700, 3 h (AID 1156)
# Condition notes: higher = more signal, called active from +8 up or from −8 down
One number for each entry.

Sample answers from the record:
[
  {
    "Molecule": "COC(=O)[C@H](CCSC)NC(=O)CC=C[C@@H](C)CO",
    "z-score": -0.0396
  },
  {
    "Molecule": "CON=C(C)CCN1CCc2nc(-c3ccccc3)c(-c3ccccc3)cc2C1",
    "z-score": 1.69
  },
  {
    "Molecule": "C[C@@H](c1ccccc1)N1C(=O)[C@H]2[C@H]3[C@H](O)[C@H](O)CC(=NOC[C@@H](O)COCc4ccco4)[C@H]3CC[C@H]2C1=O",
    "z-score": 0.33
  },
  {
    "Molecule": "CCc1cc2c(nc1CC)CCN(CCC(C)=NO[C@@H]1O[C@H](COC(C)=O)[C@@H](OC(C)=O)[C@H](OC(C)=O)[C@H]1OC(C)=O)C2",
    "z-score": 1.42
  },
  {
    "Molecule": "C[C@H]1C=CCC(=O)OC[C@H](C)C(=O)N2CCC[C@H]2C(=O)OC1",
    "z-score": 0.484
  }
]

# map each molecule to its z-score
1. CO[C@H]1COC(=O)CCC[C@H](C)[C@@H](OC)COC(=O)CC=C[C@@H]1C
2. COC(=O)CC=C[C@@H](C)[C@@H](C=NOC(C)CN1CCCc2nc(C)c(C)cc21)NS(=O)(=O)c1ccc(C)cc1 (some centres not stated)
3. C[C@@H]1CC[C@H]2C(=O)OC(Cc3ccccc3)CN2[C@H]1c1ccc(Br)cc1 (some centres not stated)
4. CC(=O)OC[C@H]1O[C@H](C#CCCc2ccccc2)C=C[C@@H]1OC(C)=O
5. CCOC(=O)CCN1C(=O)[C@H]2[C@H]3[C@H](O)[C@H](O)CC(=NOCC=C(C)CCC=C(C)C)[C@H]3CC[C@H]2C1=O

1: -0.315; 2: 0.201; 3: -0.23; 4: 0.182; 5: 1.25
